Experiment: NCI Yeast Anticancer Drug Screen. Data for the cln2 rad14 strain (AID 165)
Settings: S. cerevisiae cln2 rad14 strain, at 50.0 µM (retest, dose inferred, filed as 5.0), active compounds read high
Method: Growth inhibition of yeast strains with defined genetic alterations is measured as a screen for potential anti-cancer activity. Selected strains with alterations in DNA damage repair or cell cycle control were exposed to compounds and growth inhibition was measured relative to vehicle treated controls. The strain used in this assay is cln2 rad14
This is part of a sample that, as a whole, favours compounds with a hit. Of some 79,000 tested, about 15% had one in any assay.
Parameter threshold = 50%. Response is Condition met when growth inhibition meets or exceeds it, else Condition not met.

Nc1ccccc1Sc1ccc(C(F)(F)F)cc1[N+](=O)[O-] = Condition not met
CCN(CC)C(C)(C)C(=O)/C=C/c1ccc(Cl)cc1 = Condition not met
Cc1cccc[c]1[Sn]([Cl])([O][Sn]([Cl])([c]1ccccc1C)[c]1ccccc1C)[c]1ccccc1C = Condition met
CCOC(=O)C(=Cc1ccccc1)C(=O)OCC = Condition met
C/C(=N/NC(=O)Nc1ccc(N=Nc2ccccc2)cc1)c1ccccn1 = Condition not met
O=C1c2ccccc2C(=O)c2c1ccc(C(=O)O)c2-c1ccc2ccccc2c1 = Condition met
CC1=C(C(=O)Nc2ccc(C)cc2C)C(c2cccc([N+](=O)[O-])c2)C(C(=O)Nc2ccc(C)cc2C)=C(C)N1 = Condition not met
NS(=O)(=O)c1ccc(-n2cccc2)cc1 = Condition not met
O=C(NC[N+]12CCO[B-]1(c1ccc(Br)cc1)OCC2)c1ccccc1O (stereo unspecified) = Condition not met
CCCCN(CCCC)CC(O)c1ccc(CCc2ccccc2)cc1 (stereo unspecified) = Condition met
Cc1ccc(Cc2n[nH]c(=O)n2N2C(=O)c3ccccc3C2=O)cc1 = Condition not met
Cc1c(Cl)c(S(N)(=O)=O)cc2c1NC=NS2(=O)=O = Condition not met
CC(C)(Cl)C(Cl)CC/C(CBr)=C(\Cl)CCl (stereo unspecified) = Condition met
O=C(Nc1ccc(C2=NCCN2)cc1)c1cc(C(=O)Nc2ccc(C3=NCCN3)cc2)cc(C(=O)Nc2ccc(C3=NCCN3)cc2)c1 = Condition met
Cc1ccc(C2=CC(=O)/C(=C\C(=O)c3ccc(Cl)cc3)O2)cc1 = Condition not met
Nc1cccc2c(O)cccc12 = Condition not met
O=C(O)CC(NC(=O)CP(=O)(O)O)C(=O)O.[NH-]C1CCCCC1[NH-].[Pt+2] (stereo unspecified) = Condition not met
CC(C)=CCC/C(=C/CC/C(C)=C/CCc1ccoc1)C(=O)O = Condition met
NCCCN1c2ccccc2Sc2ccc(Cl)cc21 = Condition not met
COC12C=CC(CC1)c1c2c(O)c2ncccc2c1O (stereo unspecified) = Condition not met
CCN(CC)CCNc1ccc2nnn3c4ccccc4c(=O)c1c23 = Condition not met
N#CS/C(C(Cl)=C(Cl)Cl)=C(/Cl)[N+](=O)[O-] = Condition met
CC(=O)O/C=C1\c2ccccc2CCC1c1ccc2ccccc2c1 (stereo unspecified) = Condition not met
COc1ccc(CN2CCCN(Cc3ccc(OC)cc3)C2Cc2cc(Cl)ccc2OC)cc1 = Condition not met
CCCCCCCCCCCC[n+]1ccc(C#N)cc1 = Condition met
CNC1C(O)C(NC)C2OC3(O)C(=O)CC(C)OC3OC2C1O (stereo unspecified) = Condition not met
Fc1cccc(NC(=S)SCc2ccc(Cl)cc2)c1 = Condition met
Cc1ccc(S(=O)(=O)NCCSSCCNS(=O)(=O)c2ccc(C)cc2)cc1 = Condition met
CCCCc1c2c(nc3c1CCCC3O)/C(=C/c1ccccc1)CCC2 (stereo unspecified) = Condition not met
O=S(=O)(Nc1ccc(NS(=O)(=O)c2ccccc2)c(N2N=N2)c1)c1ccccc1 = Condition met
Brc1ccc(-c2c3ccccc3cc3c2ccc2ccccc23)cc1 = Condition not met
CCOc1ccc2nc(NC(=O)c3c/c(=N\NC(=O)C[N+](C)(C)C)c4ccc(O)cc4o3)sc2c1 = Condition met
CCOC(=O)/C(=C/c1ccc(Cl)cc1)N(CC)CC = Condition met
O=C1C(c2ccc([N+](=O)[O-])cc2)=C(Cl)C(=O)c2c(O)cccc21 = Condition not met
[N-]=[N+]=Nc1c([N+](=O)[O-])c(Cl)nc2ccccc12 = Condition met
CN1CCN(CCCN)CC1 = Condition not met
CCCCCCCCN(CCCCCCCC)CC(O)c1cc2c(c3ccccc13)CCCC2 (stereo unspecified) = Condition met
O=c1[nH]cnc2nc(I)[nH]c12 = Condition not met
N#Cc1ncc(Cl)cc1[N+](=O)[O-] = Condition met
CC(=O)OC1COC(n2ccc3cc(Br)c([N+](=O)[O-])cc32)C(OC(C)=O)C1OC(C)=O (stereo unspecified) = Condition not met
COC(=O)c1nc(Cl)nc(Cl)c1N = Condition met
Cc1cc(C(O)(C(F)(F)F)C(F)(F)F)c(I)c(C(O)(C(F)(F)F)C(F)(F)F)c1 = Condition met
CC(=O)OC1CCCCCCCCCCC12OCCO2 (stereo unspecified) = Condition met
ClCC1CSC2(CCCCC2)O1 (stereo unspecified) = Condition not met
COc1ccc(-c2noc(=O)c3ccccc23)cc1 = Condition not met
